As shown below, each of these binders has a reported OD450 nm value.
- system: monkey GPC3-His protein (monkey)
- assay.name: ELISA, monkey GPC3-His coated; antibody 66.66 nM
Respond with the number and no other words.

# annotated cases, reported OD450 nm shown
binder	OD450 nm
hAb005LH2L1a (antibody, human IgG1, V domains shown) VH: EVQLVQSGAEVKKPGASVKVSCKASGYTFTDYEMHWVRQAPGQGLEWMGAIDPETGNTAYIQKFKGRVTLTTDKSTSTAYMELRSLRSDDTAVYYCTRFYSYSHWGQGTTVTVSS VL: DIVMTQTPLSLPVTPGEPASISCRSSQSLVHSDGNTYLHWYLQKPGQSPQLLIYKVSNRFSGVPDRFSGSGSGTDFTLKISRVEAEDVGVYYCSQNTHVPPTFGGGTKVEIK	0.652
hAb005LH3L1b (antibody, human IgG1, V domains shown) VH: EVQLVQSGAEVKKPGASVKVSCKASGYTFTDYEMHWVRQAPGQGLEWIGAIDPETGNTAYIQKFKGRATLTTDKSTSTAYMELRSLRSDDTAVYYCTRFYSYSHWGQGTTVTVSS VL: DIVMTQTPLSLPVTPGEPASISCRSSQSLVHSNRNTYLHWYLQKPGQSPQLLIYKVSNRFSGVPDRFSGSGSGTDFTLKISRVEAEDVGVYYCSQNTHVPPTFGGGTKVEIK	1.18

From here, focus on the item given below.
Inquiry: Can you share its OD450 nm? I mean this binder: hAb006LH2L1 (antibody, human IgG1, V domains shown) VH: EVQLVQSGAEVKKPGSSVKVSCKASGYTFTDYEIHWVRQAPGQGLEWMGAIDPKTGNTAYNQKFMGRVTITADKSTSTAYMELSSLRSEDTAVYYCTRYFSFAYWGQGTLVTVSS VL: DIVMTQTPLSLPVTPGEPASISCRSSQTFVHSNGNTYLQWYLQKPGQSPQLLIYKVSNRFSGVPDRFSGSGSGTDFTLKISRVEAEDVGVYYCFQGSHVPYTFGQGTKLEIK
Reply text: 2.39
